# assayed system: hERG1 potassium channel (Homo sapiens)
# Sequence (Q12809 whole entry): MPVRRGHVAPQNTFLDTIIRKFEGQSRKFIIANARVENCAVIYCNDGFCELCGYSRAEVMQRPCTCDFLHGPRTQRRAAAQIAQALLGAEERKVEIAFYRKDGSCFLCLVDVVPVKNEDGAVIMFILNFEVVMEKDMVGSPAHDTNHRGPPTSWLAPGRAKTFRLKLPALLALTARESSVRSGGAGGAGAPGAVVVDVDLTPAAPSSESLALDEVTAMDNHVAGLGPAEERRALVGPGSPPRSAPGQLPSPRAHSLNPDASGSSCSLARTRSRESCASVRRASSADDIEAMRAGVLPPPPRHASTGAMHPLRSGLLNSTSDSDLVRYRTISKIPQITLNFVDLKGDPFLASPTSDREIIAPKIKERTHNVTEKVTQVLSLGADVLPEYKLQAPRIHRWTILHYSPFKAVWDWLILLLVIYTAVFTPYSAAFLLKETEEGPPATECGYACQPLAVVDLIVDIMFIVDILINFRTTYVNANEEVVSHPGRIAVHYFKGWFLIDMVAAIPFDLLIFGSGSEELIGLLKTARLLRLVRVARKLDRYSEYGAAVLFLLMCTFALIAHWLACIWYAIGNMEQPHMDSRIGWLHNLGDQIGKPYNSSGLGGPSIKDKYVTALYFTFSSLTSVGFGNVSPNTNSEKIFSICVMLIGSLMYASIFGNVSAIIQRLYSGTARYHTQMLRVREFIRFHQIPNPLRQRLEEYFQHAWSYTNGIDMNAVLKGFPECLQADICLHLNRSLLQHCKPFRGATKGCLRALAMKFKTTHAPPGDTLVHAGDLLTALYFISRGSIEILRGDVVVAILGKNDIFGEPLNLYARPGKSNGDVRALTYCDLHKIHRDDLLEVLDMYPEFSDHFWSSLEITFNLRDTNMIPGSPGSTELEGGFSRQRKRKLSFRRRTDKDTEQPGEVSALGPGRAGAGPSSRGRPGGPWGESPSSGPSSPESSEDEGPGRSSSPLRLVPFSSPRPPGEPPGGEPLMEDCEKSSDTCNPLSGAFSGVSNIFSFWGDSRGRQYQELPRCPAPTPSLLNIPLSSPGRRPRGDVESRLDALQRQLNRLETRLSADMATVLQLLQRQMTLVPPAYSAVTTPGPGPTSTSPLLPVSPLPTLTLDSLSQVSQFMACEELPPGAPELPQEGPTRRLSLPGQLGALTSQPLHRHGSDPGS
# procedure text: in vitro
# assay conditions: human
quantity kind: inhibition at 300 sec, 1 µM (%)

                                   compound  experimental_value
0  O=c1[nH]c2ccccc2n1C1CCN(CCCC(c2ccc(F)cc2)c2ccc(F)cc2)CC1 [Pimozide]                83.2

---

Catalogue of pIC50 values
# assayed system: hERG channel (Homo sapiens, UniProt Q12809)
# Sequence (Q12809 whole entry): as above
# procedure text: Predictor hERG fluorescence polarization assay
pIC50: −log10 of the molar value.

compound	pIC50
COc1nc(N)nc2c1ncn2C1O[C@H](COP(=O)(N[C@H](C)C(=O)OCC(C)(C)C)Oc2cccc3ccccc23)[C@@H](O)[C@@]1(C)O (stereo partly drawn) [BMS-986094]	8.52
COc1nc(N)nc2c1ncn2[C@@H]1O[C@H](COP(=O)(N[C@@H](C)C(=O)OCC(C)(C)C)Oc2cccc3ccccc23)[C@@H](O)[C@@]1(C)O (stereo partly drawn) [BMS986094]	8.43
CS(=O)(=O)c1ccc(C2=C(c3ccccc3)C(=O)OC2)cc1 [rofecoxib]	5.23
